settings: buffer; pH 7.4; 200.0 µM
Catalogue of log10(solubility kinetic) readings, one per entry.
EXPERIMENTAL ENDPOINT: log10(solubility kinetic) (log10 of the value in µg/mL)

# COMPOUND, log10(solubility kinetic)
records = [
    ("Cc1ccc(S(=O)(=O)N2CCC[C@H]2C(=O)OCc2cc(=O)oc3cc(C)ccc23)cc1", 0.86),
    ("NC(Cc1ccc(OC(F)F)cc1)C(=O)O (stereo not given)", 1.51),
    ("CC(C)(C)CC(C)(C)NC(=O)/C=C/C(=O)O", 1.46),
    ("O=C(CN1C(=O)NC2(CCCCCC2)C1=O)Nc1ccc(Cl)c([N+](=O)[O-])c1", 0.76),
    ("Cc1ccc(N2CN(Cc3ccco3)CNC2=S)cc1", 1.53),
    ("COc1cc(C)c(COc2ncnc3ccccc23)cc1OC", 1.60),
    ("COc1ccc2oc(C(=O)OCC(=O)NC(=O)c3ccccc3)c(C)c2c1", 0.65),
    ("Cc1ccc(CSC2=NCCN2C(=O)C(C)Oc2ccccc2)cc1 (stereo not given)", 0.64),
    ("Cc1nc2ccccc2n1CC(=O)c1ccccc1", 1.57),
    ("O=[N+]([O-])c1sccc1CS(=O)(=O)c1ccccc1", 1.31),
    ("COc1ccccc1/C=C/C(=O)NC1CC2CCC1C2 (stereo not given)", 0.30),
]

====

conditions: buffer; pH 7.4; 200.0 µM

# COMPOUND, UNITS OF MEASURE, INEQUALITY SYMBOL, solubility kinetic
records = [
    ("COc1ccc2oc(=N)c(C(=O)Nc3cccc(C)c3C)cc2c1", "µg/mL", "<", 0.3),
    ("O=C(OCC(=O)N1CCCC1=O)c1cccc([N+](=O)[O-])c1", "µg/mL", ">", 43.8),
    ("Cc1c(N)c(C)c([N+](=O)[O-])c(C)c1[N+](=O)[O-]", "µg/mL", "=", 6.9),
    ("CC(=O)N1CCN(C(=O)CCC(=O)O)CC1", "µg/mL", "=", 30.9),
    ("Cc1ccc(CS(=O)(=O)CCC(=O)NCCc2ccccc2)cc1", "µg/mL", "=", 5.2),
    ("Cc1ccc(CC2CC(=O)N(CCc3ccccc3)C2=O)cc1 (centres undefined)", "µg/mL", "=", 2.9),
    ("CCCc1nnc(NC(=O)C2CC(=O)N(CCc3ccc(F)cc3)C2)s1 (centres undefined)", "µg/mL", ">", 56.5),
    ("COC(=O)CCN(C(=O)c1ccc(Cl)c([N+](=O)[O-])c1)c1ccccn1", "µg/mL", ">", 54.6),
    ("Cc1nc(CC(=O)c2ccc(O)c(C)c2O)cs1", "µg/mL", "=", 36.7),
    ("O=C1CCC(C(=O)NCc2ccccc2)N1 (centres undefined)", "µg/mL", "=", 30.8),
    ("CCOc1ccccc1N1CCN(Cc2cnc(-c3ccccc3)[nH]2)CC1", "µg/mL", ">", 54.4),
    ("O=C(COC(=O)c1ccc(Cl)nc1)NC1CCCc2ccccc21 (centres undefined)", "µg/mL", "=", 36.1),
    ("O=C(COc1ccc(Nc2ccccc2)cc1)Nc1ccncc1", "µg/mL", "=", 9.2),
    ("Cc1nc(COc2ccccc2Cl)sc1-c1ccnc(N)n1", "µg/mL", "=", 1.2),
    ("Cc1cc(Nc2ccccc2)cc(=O)n1C", "µg/mL", "=", 30.9),
    ("CC(C)c1ccc(NC(=S)Nc2ccc3[nH]c(=O)[nH]c3c2)cc1", "µg/mL", "=", 16.7),
    ("CCOc1ccc(C2C(C#N)=C(N)Oc3cc(C)[nH]c(=O)c32)cc1OC (centres undefined)", "µg/mL", ">", 53),
    ("S=c1nc(C2CCCCC2)[nH]c2ccccc12", "µg/mL", "=", 0.5),
    ("COc1ccc2c(ccn2S(=O)(=O)c2ccccc2)c1", "µg/mL", "=", 1.6),
    ("O=[N+]([O-])c1cccc(NC(=S)N2CCCC2)c1", "µg/mL", ">", 37.7),
    ("O=C(CN1C(=O)S/C(=C\\C=C\\c2ccccc2)C1=O)N1CCOCC1", "µg/mL", "=", 7.8),
    ("CC1CCCCC12NC(=O)N(CC(=O)NCc1ccco1)C2=O (centres undefined)", "µg/mL", ">", 47.9),
    ("O/N=C(/c1ccc(F)cc1)C1CC1c1c(F)cccc1Cl (centres undefined)", "µg/mL", "=", 5),
    ("O=C(CSc1nc2c(c(=O)[nH]1)CCC2)Nc1cccc(F)c1", "µg/mL", "=", 12.2),
    ("COc1ccccc1C1NC(=O)CCC1[N+](=O)[O-] (centres undefined)", "µg/mL", ">", 37.5),
    ("Cc1cc(C)cc(OCC(=O)Nc2nc(-c3ccccn3)cs2)c1", "µg/mL", "=", 1.2),
    ("CC(=O)c1ccc(N2CCN(C(=O)Nc3cccc(F)c3)CC2)cc1", "µg/mL", "=", 4.8),
    ("O=C1C(Cc2cnc[nH]2)NC(=S)N1c1ccccc1 (centres undefined)", "µg/mL", "=", 37.4),
    ("O=C(CCc1ccccc1)N1CCN(c2ccccc2F)CC1", "µg/mL", "=", 45.7),
    ("O=C(Cc1ccc(F)cc1)NCC1CCCO1 (centres undefined)", "µg/mL", ">", 35.6),
    ("Cc1ccc(NC(=O)CN(C)C(=O)c2ccc(Br)o2)cc1", "µg/mL", "=", 14.1),
    ("O=C(CN1C(=O)COc2ccc(Cl)cc21)Nc1nccs1", "µg/mL", "=", 1.4),
    ("O=C(NCCN1C(=O)S/C(=C\\c2ccc(Cl)cc2)C1=O)C1=COCCO1", "µg/mL", "=", 2.6),
    ("Cc1[nH]c2nc3ccccc3n2c(=O)c1CCC(C)C", "µg/mL", "<", 0.2),
    ("COc1ccc(/C(C)=N/NC(=O)CNC(=O)c2cccnc2)cc1", "µg/mL", ">", 49),
    ("COc1cc(OC)c(C(=O)NC2CCCc3ccccc32)cc1OC (centres undefined)", "µg/mL", "=", 44.3),
    ("NS(=O)(=O)c1cccc(NC(=O)c2cccc(S(=O)(=O)N3CCCCCC3)c2)c1", "µg/mL", "=", 49.9),
    ("N/C(=N\\OC(=O)c1ccccc1)c1ccncc1", "µg/mL", "=", 34.8),
    ("Cc1ccc(NC(=O)CSc2cccc[n+]2[O-])c([N+](=O)[O-])c1", "µg/mL", ">", 47.9),
    ("COc1ccccc1CNC(=O)Cc1ccccc1", "µg/mL", "=", 24.7),
    ("O=C(COC(=O)/C=C/c1ccccc1)NC1CCCC1", "µg/mL", "=", 17.2),
    ("Cc1cccc(NC(=O)/C(C#N)=C/c2ccc(Cl)cc2)n1", "µg/mL", "=", 0.6),
    ("O=c1c(/C=N/O)coc2ccc(Cl)cc12", "µg/mL", "=", 8.2),
    ("O=C(CNC(=O)c1ccc(Br)o1)NC1CCCCC1", "µg/mL", ">", 49.4),
    ("CCc1ccc(CN(C)C(C)C(=O)NCc2ccccc2)cc1 (centres undefined)", "µg/mL", "=", 36.5),
    ("CC1(C)Cc2nc(NC3CCCCC3)c(C#N)cc2CO1", "µg/mL", "=", 1.7),
    ("CC(C)(C)c1ccc(C(=O)NCC(=O)NCc2ccccn2)cc1", "µg/mL", "=", 42.9),
    ("CN1CCC(CNC(=O)Nc2ccccc2)(c2ccccc2)CC1", "µg/mL", ">", 48.5),
    ("CNc1nc(Cl)c(SC)c(NCc2ccc(F)cc2)n1", "µg/mL", "=", 0.6),
]
